Overview of reported self-cleavage across a group of variants:
B1: HDV Ribozyme (parent)
chain: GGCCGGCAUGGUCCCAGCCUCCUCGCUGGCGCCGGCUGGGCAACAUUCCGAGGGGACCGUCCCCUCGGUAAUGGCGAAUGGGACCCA

Variants of: B1
Assay: self-cleavage, relative activity (ratio to wild type); higher = more cleavage; co-transcriptional
Lab note: jot the number down without any unit.

Guide cases for self-cleavage, answers given:
• C22U G31U = 0.0817
• C4A G55A = 0.3
• G38C A43U = 0.116
• C21A A56G = 0.109
• C21U C44G = 0.424
• U47C G73C = 0.374
• G6A A78U = 0.0297
• G6A G31C = 0.111
• G31C C85A = 0.317
• G54C C58G = 1.04

Look up self-cleavage of G25C C75U and report it.
0

Please report the measured self-cleavage for A71G C85A
0.674
